Molecular target: Prostaglandin G/H synthase 1 (Ovis aries, UniProt P05979)
Sequence (P05979 whole entry): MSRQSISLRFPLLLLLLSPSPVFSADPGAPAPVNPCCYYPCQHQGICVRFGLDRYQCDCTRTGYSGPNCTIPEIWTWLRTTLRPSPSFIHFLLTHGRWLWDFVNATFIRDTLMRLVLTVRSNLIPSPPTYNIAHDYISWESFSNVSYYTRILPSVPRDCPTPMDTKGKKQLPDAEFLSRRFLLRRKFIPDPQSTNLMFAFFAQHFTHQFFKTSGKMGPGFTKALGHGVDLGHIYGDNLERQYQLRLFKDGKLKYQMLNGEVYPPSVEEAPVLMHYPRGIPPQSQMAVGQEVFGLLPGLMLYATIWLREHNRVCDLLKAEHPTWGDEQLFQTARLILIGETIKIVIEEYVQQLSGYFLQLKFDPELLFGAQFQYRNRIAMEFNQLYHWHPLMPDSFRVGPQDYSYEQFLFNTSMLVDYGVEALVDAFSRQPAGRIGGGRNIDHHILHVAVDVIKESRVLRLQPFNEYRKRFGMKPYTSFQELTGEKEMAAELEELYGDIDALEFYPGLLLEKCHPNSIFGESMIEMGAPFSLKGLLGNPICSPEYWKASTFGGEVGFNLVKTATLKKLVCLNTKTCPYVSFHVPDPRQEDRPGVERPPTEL

| structure-as-smiles | limit-qualifier | IC50, µM |
| --- | --- | --- |
| O=C(c1ccccc1)n1cc(/C=N/c2ccc(Cl)cc2)c2ccccc21 | = | 86.1 |
| O=C(c1ccccc1)n1cc(/C=N/c2ccc(F)cc2)c2ccccc21 | > | 100 |
| Cc1ccc(/N=C/c2cn(C(=O)c3ccccc3)c3ccccc23)cc1 | = | 80.2 |
| Fc1ccc(/N=C/c2cn(Cc3ccccc3)c3ccccc23)cc1 | = | 91.1 |
| Cc1ccc(/N=C/c2cn(Cc3ccccc3)c3ccccc23)cc1 | = | 81.5 |
